experiment: anti-His antibody binders, primary screen, artefact control for SMM control protein annotation, biochemical, small-molecule microarray, 635 nm fluorescence (AID 1128); conditions: anti-His Alexa647 antibody binding, higher = more signal;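 also: score merges feature fluorescence with signal-to-noise for each printed compound spot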
RECORDED_ENDPOINT: composite z-score
Form field (numeric): enter value without unit.

Here's what some known entries look like.
Cc1ccc(S[C@]2(C(=O)NCC(F)(F)F)CC(=O)N(Cc3ccccc3)[C@@H]2c2ccc(CO)cc2I)cc1: 0.905
COCCOC(=O)N1C(=O)[C@@]2(c3cc(C#CC4=CCCCC4)ccc31)[C@H](c1ccccc1OCCO)N1[C@H](c3ccccc3)[C@H](c3ccccc3)OC(=O)[C@H]1[C@@H]2C(=O)N1CCCCCCC1: 0.778
O=C1c2ccccc2[C@](Cc2ccccc2I)(C(=O)NCC(F)(F)F)[C@H](c2ccc(CO)cc2)N1C1CCCCC1: 1.64
CCC[C@@H]1C[C@@]1(CCC)[C@@H](NC(=O)OCc1ccccc1)c1ccc(-c2ccccc2)cc1: -0.526
COc1ccc(CCN2C(=O)[C@@]3(Cc4ccccc42)c2ccccc2C(=O)N(Cc2ccccc2OC)[C@H]3c2ccc(CO)cc2)cc1: -0.983
COCCCNC(=O)[C@]1(CCS(=O)(=O)c2ccccc2)N=C(c2ccc(OCCCO)cc2)O[C@@H]1c1ccccc1N=[N+]=[N-]: 2.09

# input for lookup
Exam item: Would you kindly share the measured composite z-score for "CCOC(=O)C[C@H]1[C@H](OC(=O)c2cc3ccccc3oc2=O)[C@@H](NC(=O)Cc2ccc(OC)cc2)c2cc(OCCCO)ccc2N1C(=O)c1ccc2ccccc2n1" ?
Marked response: 1.37

====

assay: small-molecule binders of probe aInhba, primary screen, biochemical, small-molecule microarray, 635/667 nm fluorescence (AID 1148); conditions: higher = more signal;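 also: score merges 667nm spot fluorescence with signal-to-noise for antibody binding to printed compounds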
RECORDED_ENDPOINT: composite z-score
Write the number on its own, no unit after it.

Examples from the recorded data:
C=C(COC)/C(=C/C[C@H](OC(=O)c1ccncc1)c1ccccc1OCCO)c1cnc2ccccc2c1: 0.156
COC(=O)[C@@]1(Cc2ccc(OC)cc2)[C@@H]2C(=CC(=O)[C@H]2CC(=O)C(=O)N(C)C)CN1C(=O)c1ccccc1: 1.04
CC1CC/C=C\[C@H]2OC34C=CCN(c5ccc(Cl)cc5)C(=O)[C@H]3N(CCCCCO)C(=O)[C@]4(C)C2C(=O)O1 (some centres undefined): -0.251

Exam item: Which composite z-score is reported for this compound? O=C1C2C=CC(C(O)c3ccc(Br)cc3)N(Nc3ccccc3F)C2C(=O)N1c1ccccc1 (centres undefined)
Marked response: -0.204

Exam item: // next record "C=CC[C@]1(C(=O)NCCN2CCOCC2)N=C(c2ccc(OCCCO)cc2)O[C@H]1c1ccccc1CN=[N+]=[N-]"
Marked response: -0.374

====

test system: wheat germ agglutinin (Triticum aestivum), Alexa647-labelled; assay: wheat germ agglutinin binders on compound microarrays, profiling panel, artefact control for SMM control-protein annotation, biochemical, small-molecule microarray, 635/667 nm fluorescence (AID 1140); conditions: WGA-A647 binding, 635 nm fluorescence, higher = more signal;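 also: score merges 667 nm feature emission with signal to noise over triplicate slides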
Rule: composite z-score of 0.3 or more gives class 1; anything lower gives class 0.

Exam item: Record "COc1ccc([Si](C)(C)[C@@H]2[C@@H](CCn3cc([C@H](O)c4ccccc4)nn3)O[C@]3(C(=O)N(Cc4ccc(N5CCC5=O)cc4)c4ccccc43)[C@H]2C)cc1" ; criterion: composite z-score no lower than 0.3. Met?
Marked response: class 0

Exam item: Please do the same for "C[N+](C)(C)CCCCCCNC(=O)[C@H]1C[C@H]2C(=O)N[C@@H](Cc3ccccc3)C(=O)N2[C@H]1c1ccc(O)cc1" as well.
Marked response: class 0

Exam item: Cool, now "CCCC[C@@H](O)C1=C(COc2ccccc2)C[C@H]2C(=O)N(C)C(=O)[C@H]2[C@H]1CO"
Marked response: class 0

Exam item: Moving on to "C=CCOC(=O)[C@H]1[C@@H]2C(=O)O[C@@H](c3ccccc3)[C@@H](c3ccccc3)N2[C@@H](c2ccc(OCCOC(=O)[C@H]3C[C@H]4C(=O)N[C@@H](CC(C)C)C(=O)N4[C@H]3c3cccc(OCCO)c3)cc2)[C@]12C(=O)Nc1ccc(I)cc12"
Marked response: class 1

Exam item: Same for "CC(C)[Si](C#C[Si](C(C)C)(C(C)C)C(C)C)(O[C@H](C)c1cn([C@H](CO)Cc2ccccc2)nn1)C(C)C"
Marked response: class 0

Exam item: What do you get for "O=C(CS)NCCCCCNC(=O)[C@@H]1C[C@@H]2C(=O)N3CCC[C@H]3C(=O)N2[C@@H]1c1cccc(OCCO)c1" ?
Marked response: class 0

Exam item: Same lookup for "Cc1ccc(S[C@]2(C(=O)NCC(F)(F)F)CC(=O)N(Cc3ccccc3)[C@@H]2c2ccc(CO)cc2I)cc1" , please.
Marked response: class 1

Exam item: Next: CCCCCCCCCCC(O)C1C=CC2C(=O)N(C)C(=O)C2N1Nc1ccc([N+](=O)[O-])cc1[N+](=O)[O-] (stereo not drawn)
Marked response: class 1

Exam item: Same thing, different molecule: C=CCC(OC(C)=O)[C@@H]1[C@@H](N(Cc2ccc(-c3ccccc3)cc2)C(=O)Cc2ccc(F)cc2)c2cc(OCCCO)ccc2N1C(=O)Cc1ccc(OC)cc1 (stereo partly drawn)
Marked response: class 1

Exam item: What do we get for "C=CCOC(=O)[C@H]1[C@@H]2C(=O)O[C@@H](c3ccccc3)[C@@H](c3ccccc3)N2[C@@H](c2ccc(OCCOC(=O)[C@@H]3C[C@@H]4C(=O)N[C@@H](CCCCNC(C)=O)C(=O)N4[C@@H]3c3ccc(O)cc3)cc2)[C@]12C(=O)Nc1ccc(I)cc12" ?
Marked response: class 0

Exam item: # iterate: "[N-]=[N+]=Nc1ccccc1[C@H]1OC(c2ccc(OCCCO)cc2)=N[C@@]1(Cc1ccccc1)C(=O)N1CCCCC1"
Marked response: class 1

Exam item: What would you report for "O=C(NCCCCCNC(=O)/C(Cc1ccccc1)=N/O)OCc1ccccc1" ?
Marked response: class 0

====

experiment: E. coli DRC41 culture turbidity changes, primary screen, E. coli filamentation inducer project, strain DRC41, OD650, 48 h (AID 1152);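 also: E. coli MC1000 strain DRC41 lacking acrAB efflux pump and sulA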; conditions: E. coli DRC41 (acrAB sulA), higher = more signal, called active from +8 up or from −8 down
The source made the active and inactive calls.
Parameter z-score: see the listing below.

Before answering, review these 4 worked examples.
O=C(NCC(F)(F)F)[C@@H]1c2ccccc2C(=O)N(Cc2ccc(OC(F)(F)F)cc2)[C@H]1c1ccc(CO)cc1: 0.484 (inactive)
C=C(/C(=C/C[C@H](OC(C)=O)c1ccccc1OCCO)c1cc(C(=O)OC)ccc1OC)C(C)C: 0.483 (inactive)
CCCCC(=C=CC[C@@H](O)c1ccccc1OCCO)C[C@@H](O)COCc1ccccc1: 1.47 (inactive)
CCCC[C@@H](O)C1=C(COc2ccccc2)C[C@H]2C(=O)N(C)C(=O)[C@H]2[C@H]1CO: 2.41 (inactive)

Now let's try a different one.
Exam item: // lookup z-score for O=C1NC(=O)C2C1C=CC(C(O)c1c(F)cccc1Cl)N2Nc1ccc(Cl)cc1Cl (stereo not given)
Marked response: -3.86 (inactive)

====

Let's look at some compounds and their measured composite z-score.
target: Torsin-1A-interacting protein 1 (Homo sapiens); experiment: LAP1 binders from COS7 cell lysate, primary screen, small-molecule microarray, 635/667 nm fluorescence (AID 1116); details: COS7-hLAP1 lysate binding, 635 nm fluorescence, higher = more signal
The answer should be a number; do not append a unit.

COc1ccc([Si](C)(C)[C@@H]2[C@@H](CC(=O)N(CCO)Cc3ccccc3)O[C@]3(C(=O)N(Cc4cccc(N5CCOC5=O)c4)c4ccccc43)[C@H]2C)cc1: 0.861
O=C1N(Cc2ccccc2)c2ccccc2[C@@H]2OC(c3ccc(OCCCO)cc3)=N[C@]12Cc1ccccc1: 0.685

Exam item: So what's the measured composite z-score for this one? CCOc1cc(C(O)C2C=CC3C(=O)N(C)C(=O)C3N2Nc2ccccc2)ccc1O (configuration not stated)
Marked response: 1.92

Exam item: // same read-out, input: "COCCOC(=O)N1C(=O)[C@@]2(c3cc(C#CC4=CCCCC4)ccc31)[C@H](c1ccc(OCCO)cc1)N1[C@H](c3ccccc3)[C@H](c3ccccc3)OC(=O)[C@H]1[C@@H]2C(=O)NC[C@H](O)c1ccccc1"
Marked response: 1.06

Exam item: Next compound up: "C=CCOC(=O)[C@H]1[C@@H]2C(=O)O[C@@H](c3ccccc3)[C@@H](c3ccccc3)N2[C@@H](c2ccc(OCCOC(=O)[C@H]3C[C@H]4C(=O)N[C@@H](CCCCNC(C)=O)C(=O)N4[C@H]3c3ccc(O)cc3)cc2)[C@]12C(=O)Nc1ccccc12"
Marked response: 1.67

Exam item: Note, next up: "COC(=O)[C@@]1(Cc2ccc(OC)cc2)[C@H]2c3cc(C(=O)N4CCCC4)n(Cc4cccc5ccccc45)c3C[C@H]2CN1C(=O)c1ccccc1"
Marked response: 1.3

Exam item: Same question, O=C1OCC=C[C@H]2OC34C=CCN(Cn5nnc6ccccc65)C(=O)[C@H]3N(CCCO)C(=O)[C@@H]4[C@@H]12 (some centres not stated) this time
Marked response: 0.529

Values compiled from PubChem BioAssay.
